# Experimental System: vasopressin receptors (V2 -receptors) (Sus scrofa)
# Sequence (P32307 whole entry): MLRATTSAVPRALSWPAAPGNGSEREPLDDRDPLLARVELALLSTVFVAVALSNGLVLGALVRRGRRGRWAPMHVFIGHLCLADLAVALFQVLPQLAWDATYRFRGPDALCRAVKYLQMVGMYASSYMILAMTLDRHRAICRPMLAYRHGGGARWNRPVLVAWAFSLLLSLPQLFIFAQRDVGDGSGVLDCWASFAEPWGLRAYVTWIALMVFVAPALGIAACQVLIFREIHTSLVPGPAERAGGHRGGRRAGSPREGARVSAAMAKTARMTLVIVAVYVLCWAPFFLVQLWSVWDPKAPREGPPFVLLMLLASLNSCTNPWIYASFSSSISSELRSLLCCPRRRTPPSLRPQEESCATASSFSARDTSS
# Assay Overview: biochemical
*1 amine or outer side, *2 acyl side, *3 side chain or, on linkers, in order; H or OH if unused. Where a SMILES comes first, the peptide text is derived from it. Bridges are numbered along the chain shown (N, C = ends). [ ]: non-standard residue; d: D form. X1 = O=C(CC1(S[*:2])CCCCC1)[*:1]
Property Measured: Kb (nM)
Please state the figure in nM; there is no need to write the unit.

The cases that follow already have their Kb on record.
CCOc1ccc(C[C@H]2NC(=O)CC3(CCCCC3)CCC[C@H](C(=O)N3CCC[C@H]3C(=O)N[C@@H](CCCNC(=N)N)C(N)=O)NC(=O)[C@H](CC(N)=O)NC(=O)[C@H](C(C)C)NC(=O)[C@H](Cc3ccccc3)NC2=O)cc1 | 72
CCOc1ccc(C[C@H]2NC(=O)CC3(CCCCC3)SSC[C@@H](C(=O)N3CCC[C@H]3C(=O)N[C@@H](CCCNC(=N)N)C(N)=O)NC(=O)[C@H](CC(N)=O)NC(=O)[C@H](C(C)C)NC(=O)[C@H](Cc3ccccc3)NC2=O)cc1 [A, reference compound] ([dY](Et)FVNCPR-NH2; linker N-5 via X1) | 12
CCOc1ccc(C[C@H]2NC(=O)CC3(CCCCC3)CCC[C@@H](C(=O)N3CCC[C@H]3C(=O)N[C@@H](CCCNC(=N)N)C(N)=O)NC(=O)[C@H](CC(N)=O)NC(=O)[C@H](C(C)C)NC(=O)[C@H](Cc3ccccc3)NC2=O)cc1 | 8.2

# context switch: different molecule, same Kb
# input molecule: CCOc1ccc(C[C@H]2NC(=O)CC3(CCCCC3)SSC[C@H](C(=O)N3CCC[C@H]3C(=O)N[C@@H](CCCNC(=N)N)C(N)=O)NC(=O)[C@H](CC(N)=O)NC(=O)[C@H](C(C)C)NC(=O)[C@H](Cc3ccccc3)NC2=O)cc1 [B, reference compound] ([dY](Et)FVN[dC]PR-NH2; linker N-5 via X1) ; wanted: its Kb
170
